So I've got a bunch of molecules here, and I need their relative viability values.
System: COR-L23
procedure.text: relative viability (nuclei count vs DMSO), 5 days (fraction); higher = more cells survive
condition.description: first compound 0.08 µM
Just the number, please, no unit attached.

Query :: Suppose we examine the molecule CCCCCCCCCCCC1=C(O)C(=O)C=C(O)C1=O [Embelin] + Cc1cc(Nc2cc(N3CCN(C)CC3)nc(Sc3ccc(NC(=O)C4CC4)cc3)n2)n[nH]1 [Tozasertib] (partner 0.1 µM) ; what relative viability value has been reported?
Result :: 0.191

Query :: Suppose we examine the molecule CCCCCCCCCCCC1=C(O)C(=O)C=C(O)C1=O [Embelin] + N=C(N)NC(=N)NCCc1ccccc1 [Phenformin] (partner 250 µM) ; what relative viability value has been reported?
Result :: 0.448

Query :: Suppose we examine the molecule CCCCCCCCCCCC1=C(O)C(=O)C=C(O)C1=O [Embelin] + C[C@@H](Oc1cc(-c2cnn(C3CCNCC3)c2)cnc1N)c1c(Cl)ccc(F)c1Cl [Crizotinib] (partner 1 µM) ; what relative viability value has been reported?
Result :: 0.691

Query :: Suppose we examine the molecule CCCCCCCCCCCC1=C(O)C(=O)C=C(O)C1=O [Embelin] + CCNC(=O)c1noc(-c2cc(C(C)C)c(O)cc2O)c1-c1ccc(CN2CCOCC2)cc1 [Luminespib] (partner 0.01 µM) ; what relative viability value has been reported?
Result :: 0.773

* * *

So I've got a bunch of molecules here, and I need their relative viability values.
Test system: PC-3 [JPC-3]
procedure.text: relative viability (nuclei count vs DMSO), 5 days (fraction); higher = more cells survive
condition.description: first compound 4 µM
Just the number, please, no unit attached.

Query :: Look up relative viability with PC-3 [JPC-3] for this molecule: Clc1ccc(Nc2nnc(Cc3ccncc3)c3ccccc23)cc1 [Vatalanib] + COc1cccc2cc(-c3nc([C@H]4CC[C@H](C(=O)O)CC4)n4ncnc(N)c34)[nH]c12 [OSI-027] (partner 0.5 µM)
Result :: 0.672

Query :: Look up relative viability with PC-3 [JPC-3] for this molecule: COc1cc(N2CCC(C(N)=O)CC2)ccc1Nc1nc(N)c(Cl)c(Nc2ccccc2S(=O)(=O)C(C)C)n1 [HG-5-88-01] + N=C(N)NC(=N)NCCc1ccccc1 [Phenformin] (partner 250 µM)
Result :: 0.39

Query :: Look up relative viability with PC-3 [JPC-3] for this molecule: COc1cc(N2CCC(C(N)=O)CC2)ccc1Nc1nc(N)c(Cl)c(Nc2ccccc2S(=O)(=O)C(C)C)n1 [HG-5-88-01] + CS(=O)(=O)N1CCN(Cc2cc3nc(-c4cccc5[nH]ncc45)nc(N4CCOCC4)c3s2)CC1 [Pictilisib] (partner 1 µM)
Result :: 0.266

Query :: Look up relative viability with PC-3 [JPC-3] for this molecule: COc1cc(N2CCC(C(N)=O)CC2)ccc1Nc1nc(N)c(Cl)c(Nc2ccccc2S(=O)(=O)C(C)C)n1 [HG-5-88-01] + CC1(C)CCC(c2ccc(Cl)cc2)=C(CN2CCN(c3ccc(C(=O)NS(=O)(=O)c4ccc(N[C@H](CCN5CCOCC5)CSc5ccccc5)c(S(=O)(=O)C(F)(F)F)c4)cc3)CC2)C1 [Navitoclax] (partner 0.5 µM)
Result :: 0.751

Query :: Look up relative viability with PC-3 [JPC-3] for this molecule: C[C@@H]1CN(CC(=O)Nc2ccc3c(c2)Cc2cccc(-c4cc(=O)cc(N5CCOCC5)o4)c2S3)C[C@H](C)O1 + O=C(CCCCCCC(=O)Nc1ccccc1)NO [Vorinostat] (partner 1 µM)
Result :: 0.821

Query :: Look up relative viability with PC-3 [JPC-3] for this molecule: Clc1ccc(Nc2nnc(Cc3ccncc3)c3ccccc23)cc1 [Vatalanib] + CC1(C)CCC(c2ccc(Cl)cc2)=C(CN2CCN(c3ccc(C(=O)NS(=O)(=O)c4ccc(N[C@H](CCN5CCOCC5)CSc5ccccc5)c(S(=O)(=O)C(F)(F)F)c4)cc3)CC2)C1 [Navitoclax] (partner 0.5 µM)
Result :: 0.757

Query :: Look up relative viability with PC-3 [JPC-3] for this molecule: COc1cc(N2CCC(C(N)=O)CC2)ccc1Nc1nc(N)c(Cl)c(Nc2ccccc2S(=O)(=O)C(C)C)n1 [HG-5-88-01] + C[C@@H](Oc1cc(-c2cnn(C3CCNCC3)c2)cnc1N)c1c(Cl)ccc(F)c1Cl [Crizotinib] (partner 1 µM)
Result :: 0.64

Query :: Look up relative viability with PC-3 [JPC-3] for this molecule: Clc1ccc(Nc2nnc(Cc3ccncc3)c3ccccc23)cc1 [Vatalanib] + COc1cc2c(Oc3ccc(NC(=O)C4(C(=O)Nc5ccc(F)cc5)CC4)cc3F)ccnc2cc1OCCCN1CCOCC1 [Foretinib] (partner 0.25 µM)
Result :: 1.02
